test: Cytotoxicity against mouse J774A1 cells after 72 hrs by MTT assay; type: cell-based, J774.A1
Below is a list of entries, each paired with its recorded CC50 at 72 h value.
Report the value in µM with no unit label.

smiles.entry | CC50 at 72 h, µM
COc1cc(/C=C/C(=O)c2cccc([N+](=O)[O-])c2)cc(OC)c1OC | 49

Please turn your attention to the following entry.
Query: CC50 at 72 h lookup needed for "COc1ccc(/C=C/C(=O)c2cccc([N+](=O)[O-])c2)c(OC)c1OC" , thanks.
Response: 89.5

###

test system: Streptococcus pyogenes; assay: Antibacterial activity against Streptococcus pyogenes MTCC 443 assessed as growth inhibition by broth microdilution method; format: functional
Some molecules, each annotated with its measured MIC99.
Provide the reading as a plain figure in µg/mL.

Example results:
molecule | study.target | MIC99, µg/mL
CC1(C)S[C@@H]2[C@H](NC(=O)[C@H](N)c3ccccc3)C(=O)N2[C@H]1C(=O)O | Streptococcus pyogenes | 100
COc1ccc(C2CC(c3cccc([N+](=O)[O-])c3)=NN2)cc1 (stereo not drawn) | Streptococcus pyogenes | 500

// next item, MIC99 requested
Query: Look at this molecule and give its reported MIC99. COc1cc(C2CC(c3cccc([N+](=O)[O-])c3)=NN2C(C)=O)cc(OC)c1OC (stereo not drawn)
Response: 250

###

tested on: Streptococcus pyogenes; experiment: Antibacterial activity against Streptococcus pyogenes MTCC 443 assessed as growth inhibition by broth microdilution method; assay type: functional
endpoint: MIC99 (µg/mL)
Write down the numeric answer in µg/mL and omit the unit.

Query: Record request: MIC99 value, item O=[N+]([O-])c1cccc(C2=NNC(c3ccc4ccccc4c3)C2)c1 (stereo not given)
Response: 125

###

tested on: Streptococcus pyogenes; experiment: Antibacterial activity against Streptococcus pyogenes MTCC 443 assessed as growth inhibition by broth microdilution method; type: functional
Binary label based on MIC99 with cut-off 200 µg/mL: below gives 1 (yes), not below gives 0 (no).

compound | group
CC(=O)N1N=C(c2cccc([N+](=O)[O-])c2)CC1c1ccc2c(c1)OCO2 (centres undefined) | 0 (no)

Query: Hello, is MIC99 of the following compound strictly smaller than 200 µg/mL? COc1ccc(C2CC(c3cccc([N+](=O)[O-])c3)=NN2C(C)=O)cc1 (centres undefined)
Response: 0 (no)

Query: Would you kindly verify if MIC99 of CC(=O)N1N=C(c2cccc([N+](=O)[O-])c2)CC1/C=C/c1ccccc1 (centres undefined) is strictly less than 200 µg/mL?
Response: 1 (yes)

Query: Lab note: MIC99 threshold 200 µg/mL. Does this compound come in strictly under it? CCOC(=O)C1C(=O)C=C(c2cccc([N+](=O)[O-])c2)CC1c1ccc(OC)cc1 (centres undefined)
Response: 0 (no)

Query: Threshold test, MIC99 < 200 µg/mL: "COc1ccc(/C=C/C(=O)c2cccc([N+](=O)[O-])c2)cc1"
Response: 0 (no)

Query: Bench note: check whether "O=C(/C=C/c1ccc2ccccc2c1)c1cccc([N+](=O)[O-])c1" shows MIC99 below 200 µg/mL
Response: 1 (yes)

Query: Threshold test, MIC99 < 200 µg/mL: "O=C(/C=C/C=C/c1ccccc1)c1cccc([N+](=O)[O-])c1"
Response: 1 (yes)

Query: Problem: For the compound CC(=O)N1N=C(c2cccc([N+](=O)[O-])c2)CC1c1ccc2ccccc2c1 (centres undefined) , is MIC99 under 200 µg/mL?
Response: 1 (yes)

Query: # strict comparison: is reported MIC99 < 200 µg/mL? input = O=[N+]([O-])c1cccc(C2=NNC(c3ccc4c(c3)OCO4)C2)c1 (centres undefined)
Response: 1 (yes)

###

tested on: Streptococcus pyogenes; test: Antibacterial activity against Streptococcus pyogenes MTCC 443 assessed as growth inhibition by broth microdilution method; type: functional
Define the label as t when MIC99 is strictly less than 200 µg/mL and as f in all remaining cases.

Study these solved cases before continuing.
compound | group
COc1ccc(/C=C/C(=O)c2cccc([N+](=O)[O-])c2)c(OC)c1OC | f
COc1cc(OC)c(OC)cc1/C=C/C(=O)c1cccc([N+](=O)[O-])c1 | f
COc1ccc(C2CC(c3cccc([N+](=O)[O-])c3)=NN2C(C)=O)cc1OC (stereo not given) | t

Query: Check if MIC99 falls below 200 µg/mL for COc1ccc(C2CC(c3cccc([N+](=O)[O-])c3)=NN2C(C)=O)c(OC)c1OC (stereo not given) .
Response: f

Query: Field: below-cutoff. Rule: recorded MIC99 strictly less than 200 µg/mL. Subject: COc1cc(OC)c(C2CC(c3cccc([N+](=O)[O-])c3)=NN2C(C)=O)cc1OC (stereo not given)
Response: t

Query: Say whether its MIC99 is strictly beneath 200 µg/mL. Entry: "COc1cc(/C=C/C(=O)c2cccc([N+](=O)[O-])c2)cc(OC)c1OC"
Response: t

Query: Find out if reported MIC99 for "O=C(/C=C/c1ccc2c(c1)OCO2)c1cccc([N+](=O)[O-])c1" is less than 200 µg/mL
Response: f

###

test system: Streptococcus pyogenes; assay: Antibacterial activity against Streptococcus pyogenes MTCC 443 assessed as growth inhibition by broth microdilution method; format: functional
endpoint: MIC99

compound | study.target | MIC99
CCOC(=O)C1C(=O)C=C(c2cccc([N+](=O)[O-])c2)CC1c1ccc2c(c1)OCO2 (stereo not drawn) | Streptococcus pyogenes | 200 µg/mL
COc1ccc(/C=C/C(=O)c2cccc([N+](=O)[O-])c2)cc1OC | Streptococcus pyogenes | 200 µg/mL

Could you now look at the following compound, please?
Query: What does the record list as MIC99 for CCOC(=O)C1C(=O)C=C(c2cccc([N+](=O)[O-])c2)CC1c1cc(OC)c(OC)c(OC)c1 (stereo not drawn) ?
Response: 200 µg/mL
